Form field: hNK1R, IP3 Efficacy (one value per entry).
- target_or_test_system: hNK1R (Homo sapiens, UniProt P25103)
- Construct: host or cells: COS-7
- Sequence (P25103 whole entry): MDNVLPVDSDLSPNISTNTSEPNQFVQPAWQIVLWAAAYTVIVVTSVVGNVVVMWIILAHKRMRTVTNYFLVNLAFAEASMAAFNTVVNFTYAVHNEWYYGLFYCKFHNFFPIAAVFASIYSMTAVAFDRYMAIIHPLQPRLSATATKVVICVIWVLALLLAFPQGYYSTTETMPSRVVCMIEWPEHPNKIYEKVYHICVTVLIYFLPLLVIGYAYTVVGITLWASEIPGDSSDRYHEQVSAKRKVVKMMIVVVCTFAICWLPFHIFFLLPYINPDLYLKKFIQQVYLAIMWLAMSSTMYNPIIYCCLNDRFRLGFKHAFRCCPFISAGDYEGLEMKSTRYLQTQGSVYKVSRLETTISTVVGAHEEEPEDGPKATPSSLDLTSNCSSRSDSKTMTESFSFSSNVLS
- measurement_description: IP3 assay (inositol trisphosphate, 3H-myoinositol) in transiently transfected COS-7 cells
- Assay type: cell-based
- measurement_parameters: COS-7 cells; figure legends: percent of 10^-6 M NKA
Numbered stars: 1 amine (or outer) side, 2 acyl side, 3 side chain; on linkers, the order of the positions; unused ones are H or OH. Square brackets hold non-standard residues; d marks the D form. Peptide text beside a SMILES is read from it. * marks the point of attachment. C18 diacid = O=C(O)CCCCCCCCCCCCCCCCC(=O)*; γGlu = O=C(O)[C@H](CCC(=O)[*:2])N[*:1]; NMeL = CN[C@@H](CC(C)C)C(=O)O; Nle = CCCC[C@H](N)C(=O)O; AEEA = NCCOCCOCC(=O)O
The answer is to be given in %; state only the numeric part.

Use the examples below as a reference point.
CCCC[C@H](NC(=O)[C@H](CC(C)C)N(C)C(=O)CNC(=O)[C@H](CCCNC(=N)N)NC(=O)[C@H](Cc1ccc(O)cc1)NC(=O)[C@H](CCCCN)NC(=O)[C@H](CCC(=O)O)NC(=O)COCCOCCNC(=O)COCCOCCNC(=O)CC[C@H](NC(=O)CCCCCCCCCCCCCCCCC(=O)O)C(=O)O)C(N)=O [compound 314, *Glu;Lys;Tyr;Arg;Gly;NmLeu;Nle;NH2] ({C18 diacid-γGlu-AEEA-AEEA}-EKYRG[NMeL][Nle]-NH2) : 0
CCCC[C@H](NC(=O)[C@H](CC(C)C)N(C)C(=O)CNC(=O)[C@@H](NC(=O)[C@H](Cc1ccccc1)NC(=O)[C@H](CCCCN)NC(=O)[C@H](CC(=O)O)NC(=O)COCCOCCNC(=O)COCCOCCNC(=O)CC[C@H](NC(=O)CCCCCCCCCCCCCCCCC(=O)O)C(=O)O)[C@@H](C)O)C(N)=O [compound 387, *Asp;Lys;Phe;Thr;Gly;NmLeu;Nle;NH2] ({C18 diacid-γGlu-AEEA-AEEA}-DKFTG[NMeL][Nle]-NH2) : 100

Let us examine a further case.
Inquiry: Supply recorded hNK1R, IP3 Efficacy for CSCC[C@H](NC(=O)[C@H](CC(C)C)N(C)C(=O)CNC(=O)[C@@H](NC(=O)[C@H](Cc1ccccc1)NC(=O)[C@H](CCCCNC(=O)COCCOCCNC(=O)COCCOCCNC(=O)CC[C@H](NC(=O)CCCCCCCCCCCCCCCCC(=O)O)C(=O)O)NC(=O)[C@H](CC(=O)O)NC(C)=O)C(C)C)C(N)=O [compound 301, **Asp;Lys*;Phe;Val;Gly;NmLeu;Met;NH2] here.
Reply text: 64

----------
- target_or_test_system: hNK3R (Homo sapiens, UniProt P29371)
- Sequence (P29371 whole entry): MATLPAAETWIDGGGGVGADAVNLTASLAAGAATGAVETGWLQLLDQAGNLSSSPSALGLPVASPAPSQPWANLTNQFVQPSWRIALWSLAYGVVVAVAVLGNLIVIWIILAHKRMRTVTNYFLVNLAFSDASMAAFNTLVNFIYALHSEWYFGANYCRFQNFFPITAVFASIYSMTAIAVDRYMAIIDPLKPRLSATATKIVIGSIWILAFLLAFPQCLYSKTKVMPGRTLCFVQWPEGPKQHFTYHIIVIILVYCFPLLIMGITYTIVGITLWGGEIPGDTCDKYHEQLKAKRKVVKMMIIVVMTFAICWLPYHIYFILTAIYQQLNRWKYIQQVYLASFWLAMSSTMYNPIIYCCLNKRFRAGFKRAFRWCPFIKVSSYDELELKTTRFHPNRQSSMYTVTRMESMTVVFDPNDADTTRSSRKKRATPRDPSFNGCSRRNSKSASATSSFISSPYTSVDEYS
- measurement_description: IP3 assay (inositol trisphosphate, 3H-myoinositol) in transiently transfected COS-7 cells
- measurement_parameters: COS-7 cells, 0.2% ovalbumin buffer; read-out: hNK3, IP3 EC50
Numbered stars: 1 amine (or outer) side, 2 acyl side, 3 side chain; on linkers, the order of the positions; unused ones are H or OH. Square brackets hold non-standard residues; d marks the D form. Peptide text beside a SMILES is read from it. * marks the point of attachment. C18 diacid = O=C(O)CCCCCCCCCCCCCCCCC(=O)*; γGlu = O=C(O)[C@H](CCC(=O)[*:2])N[*:1]; NMeL = CN[C@@H](CC(C)C)C(=O)O; Nle = CCCC[C@H](N)C(=O)O; AEEA = NCCOCCOCC(=O)O
In this section we review reported pEC50 values for a set of compounds.
Quick note: pEC50 values are minus log10 of concentrations in mol/L.

CCCC[C@H](NC(=O)[C@H](CC(C)C)N(C)C(=O)CNC(=O)[C@@H](NC(=O)[C@H](Cc1ccccc1)NC(=O)[C@H](CCCNC(=N)N)NC(=O)[C@H](CC(=O)O)NC(=O)COCCOCCNC(=O)COCCOCCNC(=O)CC[C@H](NC(=O)CCCCCCCCCCCCCCCCC(=O)O)C(=O)O)C(C)C)C(N)=O [compound 306, *Asp;Arg;Phe;Val;Gly;NmLeu;Nle;NH2] ({C18 diacid-γGlu-AEEA-AEEA}-DRFVG[NMeL][Nle]-NH2) : 7.44

Let us examine a further case.
Inquiry: Write down pEC50 measured for item CCCC[C@H](NC(=O)[C@H](CC(C)C)N(C)C(=O)CNC(=O)[C@@H](NC(=O)[C@H](Cc1ccccc1)NC(=O)[C@H](CCCCN)NC(=O)[C@H](CCC(=O)O)NC(=O)COCCOCCNC(=O)COCCOCCNC(=O)CC[C@H](NC(=O)CCCCCCCCCCCCCCCCC(=O)O)C(=O)O)C(C)C)C(N)=O [compound 335, *Glu;Lys;Phe;Val;Gly;NmLeu;Nle;NH2] ({C18 diacid-γGlu-AEEA-AEEA}-EKFVG[NMeL][Nle]-NH2)
Reply text: 6.95

----------
- target_or_test_system: hNK2R (Homo sapiens)
- Construct: host or cells: COS-7
- Sequence (P21452 1-398): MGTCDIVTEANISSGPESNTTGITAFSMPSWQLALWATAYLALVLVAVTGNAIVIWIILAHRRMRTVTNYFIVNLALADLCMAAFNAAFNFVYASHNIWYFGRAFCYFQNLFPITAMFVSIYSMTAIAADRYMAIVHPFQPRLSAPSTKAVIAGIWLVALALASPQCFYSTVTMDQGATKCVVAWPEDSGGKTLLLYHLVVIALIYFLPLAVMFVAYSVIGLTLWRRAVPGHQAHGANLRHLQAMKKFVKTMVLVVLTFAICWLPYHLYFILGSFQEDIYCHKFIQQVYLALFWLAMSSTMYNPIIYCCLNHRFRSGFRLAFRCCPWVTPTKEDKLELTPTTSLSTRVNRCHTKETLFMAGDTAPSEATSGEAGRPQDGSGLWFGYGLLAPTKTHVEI
- measurement_description: IP3 assay (inositol trisphosphate, 3H-myoinositol) in transiently transfected COS-7 cells
- Assay type: cell-based
- measurement_parameters: COS-7 cells; figure legends: percent of 10^-6 M NKA
Numbered stars: 1 amine (or outer) side, 2 acyl side, 3 side chain; on linkers, the order of the positions; unused ones are H or OH. Square brackets hold non-standard residues; d marks the D form. Peptide text beside a SMILES is read from it. * marks the point of attachment. C18 diacid = O=C(O)CCCCCCCCCCCCCCCCC(=O)*; γGlu = O=C(O)[C@H](CCC(=O)[*:2])N[*:1]; C14 diacid = O=C(O)CCCCCCCCCCCCC(=O)*; NMeL = CN[C@@H](CC(C)C)C(=O)O; hSer = N[C@@H](CCO)C(=O)O; Nle = CCCC[C@H](N)C(=O)O; AEEA = NCCOCCOCC(=O)O; βAla = NCCC(=O)O
measured_endpoint: hNK2R, IP3 Efficacy (%)
Express it in %; write the number only.

COCC[C@H](NC(=O)[C@H](CC(C)C)N(C)C(=O)CNC(=O)[C@@H](NC(=O)[C@H](Cc1ccc(O)cc1)NC(=O)[C@H](CCCCN)NC(=O)[C@H](CCC(=O)O)NC(=O)COCCOCCNC(=O)COCCOCCNC(=O)CC[C@H](NC(=O)CCCCCCCCCCCCCCCCC(=O)O)C(=O)O)C(C)C)C(N)=O [compound 382, *Glu;Lys;Tyr;Val;Gly;NmLeu;Metox;NH2] ({C18 diacid-γGlu-AEEA-AEEA}-EKYVG[NMeL][hSer](Me)-NH2) : 95
CCCC[C@H](NC(=O)[C@H](CC(C)C)NC(=O)CCNC(=O)[C@@H](NC(=O)[C@H](Cc1ccccc1)NC(=O)[C@H](CO)NC(=O)[C@H](CC(=O)O)NC(=O)[C@@H](NC(=O)[C@H](CCCCN)NC(=O)COCCOCCNC(=O)COCCOCCNC(=O)CC[C@H](NC(=O)CCCCCCCCCCCCCCCCC(=O)O)C(=O)O)[C@@H](C)O)C(C)C)C(N)=O [compound 322] ({C18 diacid-γGlu-AEEA-AEEA}-KTDSFV[βAla]L[Nle]-NH2) : 53
CCCC[C@H](NC(=O)[C@H](CC(C)C)N(C)C(=O)CNC(=O)[C@@H](NC(=O)[C@H](Cc1ccc(O)cc1)NC(=O)[C@H](CCCCN)NC(=O)[C@H](CC(=O)O)NC(=O)COCCOCCNC(=O)COCCOCCNC(=O)CC[C@H](NC(=O)CCCCCCCCCCCCC(=O)O)C(=O)O)C(C)C)C(N)=O [compound 368, *Asp;Lys;Tyr;Val;Gly;NmLeu;Nle;NH2] ({C14 diacid-γGlu-AEEA-AEEA}-DKYVG[NMeL][Nle]-NH2) : 70

Inquiry: Tell me measured hNK2R, IP3 Efficacy for CCCC[C@H](NC(=O)[C@H](CC(C)C)N(C)C(=O)CNC(=O)[C@@H](NC(=O)[C@H](Cc1ccc(O)cc1)NC(=O)[C@H](CCCCN)NC(=O)[C@@H](N)CC(=O)O)C(C)C)C(N)=O [compound 374, Asp;Lys;Tyr;Val;Gly;NmLeu;Nle;NH2] (H-DKYVG[NMeL][Nle]-NH2) please.
Reply text: 90

Inquiry: Give the reported value of hNK2R, IP3 Efficacy for this record: COCC[C@H](NC(=O)[C@H](CC(C)C)N(C)C(=O)CNC(=O)[C@@H](NC(=O)[C@H](Cc1ccccc1)NC(=O)[C@H](CCCCN)NC(=O)[C@H](CC(=O)O)NC(=O)COCCOCCNC(=O)COCCOCCNC(=O)CC[C@H](NC(=O)CCCCCCCCCCCCCCCCC(=O)O)C(=O)O)C(C)C)C(N)=O [compound 384, *Asp;Lys;Phe;Val;Gly;NmLeu;Metox;NH2] ({C18 diacid-γGlu-AEEA-AEEA}-DKFVG[NMeL][hSer](Me)-NH2)
Reply text: 95
